Assay System: human CD33 C276A (human, UniProt P20138 18-364)
Sequence (P20138 18-364 C276A limits assumed): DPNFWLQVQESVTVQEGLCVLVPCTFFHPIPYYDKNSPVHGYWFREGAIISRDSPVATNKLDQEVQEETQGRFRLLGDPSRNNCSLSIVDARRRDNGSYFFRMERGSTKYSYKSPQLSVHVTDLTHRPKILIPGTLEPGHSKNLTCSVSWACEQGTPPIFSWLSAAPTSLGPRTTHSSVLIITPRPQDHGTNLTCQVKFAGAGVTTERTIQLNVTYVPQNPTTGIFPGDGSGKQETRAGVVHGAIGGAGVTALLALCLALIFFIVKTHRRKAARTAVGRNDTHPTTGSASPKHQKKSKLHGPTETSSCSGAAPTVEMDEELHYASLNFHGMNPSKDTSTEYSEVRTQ
Protocol Details: alanine scan, flow cytometry, HEK293-T;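 further: antibody binding to each alanine-substituted CD33 mutant expressed transiently in HEK293-T, read as fluorescence minus background, mean of duplicates, relative to wild-type CD33 set as 100%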
Result Type: Mean % WT Binding (% WT binding)
Supply the numeric figure in % WT binding, leaving out any unit text.

Notebook: Refmab #1 (antibody, V domains shown, The alanine scan used IgG or Fab; also called hP67.6) VH: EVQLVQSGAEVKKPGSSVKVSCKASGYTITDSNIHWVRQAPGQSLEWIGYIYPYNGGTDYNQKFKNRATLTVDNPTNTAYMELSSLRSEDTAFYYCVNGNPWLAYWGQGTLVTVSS VL: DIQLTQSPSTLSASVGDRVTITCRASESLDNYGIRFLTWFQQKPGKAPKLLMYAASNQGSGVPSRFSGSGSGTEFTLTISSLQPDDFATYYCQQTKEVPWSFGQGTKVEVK , Mean % WT Binding read as 83.4

Where do these numbers come from? They come from patent US20260242735A1.
